Hey, just so you know, these numbers are from paper PMC10786891.

Molecular target: T1, EsCas13d, nuclease-dead (Eubacterium siraeum, UniProt B0MS50, R295A;H300A;R849A;H854A)
T1 sequence: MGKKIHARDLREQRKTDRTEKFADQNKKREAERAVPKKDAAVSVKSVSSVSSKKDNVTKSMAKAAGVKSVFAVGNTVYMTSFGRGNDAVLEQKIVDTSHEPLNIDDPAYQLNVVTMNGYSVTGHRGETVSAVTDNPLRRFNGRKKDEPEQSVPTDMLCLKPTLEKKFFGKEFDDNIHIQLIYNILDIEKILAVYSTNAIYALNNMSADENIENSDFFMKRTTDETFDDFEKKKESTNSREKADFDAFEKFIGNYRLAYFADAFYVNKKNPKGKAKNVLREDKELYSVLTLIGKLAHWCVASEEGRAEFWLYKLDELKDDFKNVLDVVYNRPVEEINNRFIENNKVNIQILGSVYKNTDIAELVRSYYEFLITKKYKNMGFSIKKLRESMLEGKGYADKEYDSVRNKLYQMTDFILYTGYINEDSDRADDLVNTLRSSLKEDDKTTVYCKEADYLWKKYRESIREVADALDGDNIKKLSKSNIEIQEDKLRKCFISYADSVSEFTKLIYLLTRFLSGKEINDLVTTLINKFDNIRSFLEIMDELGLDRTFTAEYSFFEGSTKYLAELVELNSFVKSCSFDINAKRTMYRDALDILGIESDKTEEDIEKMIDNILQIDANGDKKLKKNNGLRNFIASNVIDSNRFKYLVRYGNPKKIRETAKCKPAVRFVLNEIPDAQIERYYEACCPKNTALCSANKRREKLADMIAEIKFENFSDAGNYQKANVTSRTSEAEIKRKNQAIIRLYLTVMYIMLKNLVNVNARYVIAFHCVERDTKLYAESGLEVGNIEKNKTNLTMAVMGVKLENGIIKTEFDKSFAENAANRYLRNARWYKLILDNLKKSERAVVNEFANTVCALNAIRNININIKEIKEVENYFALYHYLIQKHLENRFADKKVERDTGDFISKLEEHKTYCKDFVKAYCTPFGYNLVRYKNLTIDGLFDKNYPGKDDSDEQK
Assay: crRNA (strand 1, pre-loaded); Mg2+; 40 mM Tris-HCl pH 7.5, 150 mM NaCl, 6 mM MgCl2, 1 mM DTT, 0.1% Tween-20, 0.2 mg/ml BSA; 25 C; 10 min per concentration, then washed
Conditions: tags: His6-TwinStrep-SUMO cleaved; N-terminal SNAP kept (SNAP-Surface 488); label: 3' end held by stalled T7 RNA polymerase
I'd appreciate it if you marked entries 1 when Kd is lower than 20 nM and 0 when it is not.

target 3 insA 3' of 21,insC 3' of 5 (mixed) RNA 1: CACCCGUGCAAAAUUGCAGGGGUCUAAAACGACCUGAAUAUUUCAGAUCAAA RNA 2: GGGAAUGGAUCCACAUCUACGAAUUCGUUUUAUGAUCUGAAAUAUUCACGGUCUGCAGAUCGGAAGAGCACACGU :: 0
target 2 MT 5'PFS AAU 3'PFS UUU (mixed) RNA 1: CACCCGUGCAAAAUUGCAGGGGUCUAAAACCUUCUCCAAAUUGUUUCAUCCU RNA 2: GGGAAUGGAUCCACAUCUACGAAUUCAAUAGGAUGAAACAAUUUGGAGAAGUUUAGAUCGGAAGAGCACACGU :: 1

Inquiry: Report whether reported Kd is lower than 20 nM (strictly) for target 3 insA 3' of 10,insC 3' of 4 (mixed) RNA 1: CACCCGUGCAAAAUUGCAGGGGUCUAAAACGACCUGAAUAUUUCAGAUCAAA RNA 2: GGGAAUGGAUCCACAUCUACGAAUUCGUUUUUGAUCUGAAAUAAUUCAGCGUCUGCAGAUCGGAAGAGCACACGU
Reply text: 0

Inquiry: Report whether reported Kd is lower than 20 nM (strictly) for target 2 MT 5'PFS UAU 3'PFS UUU (mixed) RNA 1: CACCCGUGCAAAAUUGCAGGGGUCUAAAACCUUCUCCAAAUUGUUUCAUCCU RNA 2: GGGAAUGGAUCCACAUCUACGAAUUCUAUAGGAUGAAACAAUUUGGAGAAGUUUAGAUCGGAAGAGCACACGU
Reply text: 0

Inquiry: Report whether reported Kd is lower than 20 nM (strictly) for target 1 MT 5'PFS AGG 3'PFS UCG (mixed) RNA 1: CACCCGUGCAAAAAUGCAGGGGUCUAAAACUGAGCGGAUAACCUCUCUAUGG RNA 2: GGGAAUGGAUCCACAUCUACGAAUUCAGGCCAUAGAGAGGUUAUCCGCUCAUCGAGAUCGGAAGAGCACACGU
Reply text: 0

Inquiry: Report whether reported Kd is lower than 20 nM (strictly) for target 2 MT 5'PFS GCG 3'PFS CUC (mixed) RNA 1: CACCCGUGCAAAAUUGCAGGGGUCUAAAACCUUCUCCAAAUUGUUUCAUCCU RNA 2: GGGAAUGGAUCCACAUCUACGAAUUCGCGAGGAUGAAACAAUUUGGAGAAGCUCAGAUCGGAAGAGCACACGU
Reply text: 0

Inquiry: Report whether reported Kd is lower than 20 nM (strictly) for target 2 MT 5'PFS GCC 3'PFS AUU (mixed) RNA 1: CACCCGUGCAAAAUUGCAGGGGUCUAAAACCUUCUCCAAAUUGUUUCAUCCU RNA 2: GGGAAUGGAUCCACAUCUACGAAUUCGCCAGGAUGAAACAAUUUGGAGAAGAUUAGAUCGGAAGAGCACACGU
Reply text: 1
